- TEST SYSTEM: CK1 alpha (Homo sapiens)
- Sequence (P48729 whole entry): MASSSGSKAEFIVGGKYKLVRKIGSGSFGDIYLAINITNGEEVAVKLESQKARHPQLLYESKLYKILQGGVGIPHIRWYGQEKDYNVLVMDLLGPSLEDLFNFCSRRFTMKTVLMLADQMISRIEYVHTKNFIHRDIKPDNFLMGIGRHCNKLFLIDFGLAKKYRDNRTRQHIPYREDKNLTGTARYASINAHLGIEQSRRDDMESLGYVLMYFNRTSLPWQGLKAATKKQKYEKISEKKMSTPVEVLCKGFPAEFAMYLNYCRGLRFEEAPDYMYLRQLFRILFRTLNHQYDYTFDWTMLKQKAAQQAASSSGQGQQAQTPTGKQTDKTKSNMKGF
REPORTED PROPERTY: IC50

[[record]]
molecule = "COc1cc(N2CCC(N3CCN(C)CC3)CC2)ccc1Nc1ncc(Cl)c(Nc2ccccc2P(C)(C)=O)n1 [Brigatinib, reference compound]"
reported_property = "IC50"
endpoint_result = "> 10 µM"


Turning now to a further record.
Enquiry: Tell me the measured IC50 of COc1cc(N2CCC3(CCN(C)CC3)CC2)ccc1Nc1ncc(Cl)c(Nc2ccccc2P(C)(C)=O)n1 , please.
Return: > 10 µM

----------
- Tested on: OAT1
- EXPERIMENT DESCRIPTION: Uptake inhibitor investigation in HEK293 cells expressing transporter
- Assay type: in vitro ADME
- EXPERIMENTAL PARAMETERS: human, HEK293 cells expressing OAT1, probe ATV, 1 μM; read-out: Inhibition rate
REPORTED PROPERTY: inhibition at 50 μM (%)
A number alone suffices; assume %.

Enquiry: Form field - read-out: inhibition at 50 μM; system: OAT1; submitted item: COc1cc(N2CCC3(CCN(C)CC3)CC2)ccc1Nc1ncc(Cl)c(Nc2ccccc2P(C)(C)=O)n1
Return: 31.9
